Give measured Kd for each item. Keep answers brief.
MEASUREMENT TARGET: H7 Sh2 HA (A/Shanghai/2/2013), ectodomain trimer, cleavage state not stated (influenza A virus (A/Shanghai/2/2013))
METHOD SUMMARY: BLI

INSERT INTO results (binder, value) VALUES
  ('H7.5 Fab H-S58W (Fab, V domains shown) VH: QVQLVQSGAEVKKPGASVKVSCKASGYTLTRYYFHWVRQAPGQGFEWMGIINPNGGGTWYAQKFGDRVIMTSDMSTSTIYMELSSLRSEDTAVYYCARDMPYYHDSGGPLFDLWGQGTLVTVSS VL: EIVMTQSPSSLSASVGDRVTITCRPSQSISTFLNWYEQKPGKAPKLLIYDASSLQSGVPSRFSGSGSGTEFTLTISSLQPEDFATYYCQQSFSTPYTFGQGTRLEIK', '> 1000 nM'),
  ('H7.5 Fab H-M73R (Fab, V domains shown) VH: QVQLVQSGAEVKKPGASVKVSCKASGYTLTRYYFHWVRQAPGQGFEWMGIINPNGGGTSYAQKFGDRVIMTSDRSTSTIYMELSSLRSEDTAVYYCARDMPYYHDSGGPLFDLWGQGTLVTVSS VL: EIVMTQSPSSLSASVGDRVTITCRPSQSISTFLNWYEQKPGKAPKLLIYDASSLQSGVPSRFSGSGSGTEFTLTISSLQPEDFATYYCQQSFSTPYTFGQGTRLEIK', '< 0.1 nM');

Note: attention shifts to another entry.
Ask | Fill in the blank: the reported Kd of H7.5 Fab L-T94Q (Fab, V domains shown) VH: QVQLVQSGAEVKKPGASVKVSCKASGYTLTRYYFHWVRQAPGQGFEWMGIINPNGGGTSYAQKFGDRVIMTSDMSTSTIYMELSSLRSEDTAVYYCARDMPYYHDSGGPLFDLWGQGTLVTVSS VL: EIVMTQSPSSLSASVGDRVTITCRPSQSISTFLNWYEQKPGKAPKLLIYDASSLQSGVPSRFSGSGSGTEFTLTISSLQPEDFATYYCQQSFSQPYTFGQGTRLEIK is ____.
Reply | > 1000 nM
